This collection of values is drawn from patent US20240246954A1.

Target: Avi-KRAS G12D/Q25A (1-169) GppNHp/3×FLAG-PI3KCA (157-299) (Homo sapiens, UniProt P01116, G12D/Q25A)
Construct: Avi-KRAS G12D/Q25A (1-169) GppNHp
Sequence (P01116 1-169 isoform P01116-2 G12D/Q25A limits assumed): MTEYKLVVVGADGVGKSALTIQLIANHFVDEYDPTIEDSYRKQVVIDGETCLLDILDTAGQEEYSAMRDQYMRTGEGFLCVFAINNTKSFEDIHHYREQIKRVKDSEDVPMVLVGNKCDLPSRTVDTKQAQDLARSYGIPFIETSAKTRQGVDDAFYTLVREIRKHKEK
Assay: HTRF PI3KCA-KRAS G12D/Q25A-GppNHp disruption assay
Conditions: 1 h incubation
Method: The HTRF assay employed the following protocol: Compounds were dispensed in assay plate (384-well, Grenier Bione #784075) using Echo (model 555) with dose response settings: 200 nL final volume, titration from 100 μM as a 10-point dilution series. […] Plates were analyzed on an Envision plate reader using the following setting: Excitation 320 nm, Bandwidth […]; Emission 615 nm, Bandwidth […], Gain 100%, Flashes 100, Lag 60 μs. […] Data was plotted and analyzed using Prism 8.
Form field: IC50 (one value per entry).

[
  {
    "compound": "CO[C@@H]1CN(C)C[C@H]1Oc1nc(N2CCNCC2)c2cc(Cl)c(-c3ccc(F)c4sc(N)nc34)c(F)c2n1",
    "recorded.metric": "IC50",
    "val": "10 to 30 µM"
  },
  {
    "compound": "C[C@@H]1CN(c2nc(OC[C@@]34CCCN3C[C@H](F)C4)nc3c(F)c(-c4ccc(F)c5sc(N)nc45)c(C(F)(F)F)cc23)[C@@H](C)CN1",
    "recorded.metric": "IC50",
    "val": "1 to 10 µM"
  },
  {
    "compound": "CN(c1nc(OC[C@@]23CCCN2C[C@H](F)C3)nc2c(F)c(-c3ccc(F)c4sc(N)nc34)c(C(F)(F)F)cc12)[C@@H]1CNCC1(C)C",
    "recorded.metric": "IC50",
    "val": "0.1 to 1 µM"
  },
  {
    "compound": "C[C@H]1CNCCN1c1nc(OC[C@@H]2CCCN2C)nc2c(F)c(-c3ccc(F)c4sc(N)nc34)c(Cl)cc12",
    "recorded.metric": "IC50",
    "val": "10 to 30 µM"
  },
  {
    "compound": "C[C@@H]1C[C@@H](N(C)c2nc(OC[C@@]34CCCN3C[C@H](F)C4)nc3c(F)c(-c4ccc(F)c5sc(N)c(C#N)c45)ccc23)CN1",
    "recorded.metric": "IC50",
    "val": "1 to 10 µM"
  },
  {
    "compound": "CN(c1nc(OCC23CCCN2CCC3)nc2c(F)c(-c3ccc(F)c4sc(N)nc34)c(Cl)cc12)C1CN(C(=O)CN)C1",
    "recorded.metric": "IC50",
    "val": "10 to 30 µM"
  },
  {
    "compound": "Nc1nc2c(-c3c(C(F)(F)F)cc4c(N5CCC6(CNC6)C5)nc(OCC56CCCN5CCC6)nc4c3F)ccc(F)c2s1",
    "recorded.metric": "IC50",
    "val": "1 to 10 µM"
  },
  {
    "compound": "NC(=O)N1CCN(c2nc(OCC34CCCN3CCC4)nc3c(F)c(-c4ccc(F)c5sc(N)nc45)c(-c4ccoc4)cc23)CC1",
    "recorded.metric": "IC50",
    "val": "10 to 30 µM"
  },
  {
    "compound": "N#Cc1c(N)sc2c(F)ccc(-c3c(C(F)(F)F)cc4c(N5CC6CCC(C5)N6)nc(OCC5(CN6CC[C@@H](F)C6)CC5)nc4c3F)c12",
    "recorded.metric": "IC50",
    "val": "0.1 to 1 µM"
  },
  {
    "compound": "CN1CCC[C@H]1COc1nc(NC2CNC2)c2cnc(-c3ccc(F)c4sc(N)nc34)c(F)c2n1",
    "recorded.metric": "IC50",
    "val": "10 to 30 µM"
  }
]

Now, please, on to the next compound.
q: Using known records, supply IC50 for "Nc1nc2c(-c3c(C(F)(F)F)cc4c(N5CC[C@@H]6NCC[C@@H]65)nc(OCC56CCCN5CCC6)nc4c3F)ccc(F)c2s1"
a: 1 to 10 µM
